Data credit: paper PMC2631437

Target: T1, MotA K3E (bacteriophage T4, UniProt P22915 1-211, K3E)
T1 sequence: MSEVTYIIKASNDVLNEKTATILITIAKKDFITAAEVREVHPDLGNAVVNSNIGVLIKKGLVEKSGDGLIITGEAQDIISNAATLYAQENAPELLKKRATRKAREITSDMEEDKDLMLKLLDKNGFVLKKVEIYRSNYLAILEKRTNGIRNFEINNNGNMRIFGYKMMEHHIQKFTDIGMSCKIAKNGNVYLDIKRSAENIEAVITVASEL
Experiment: EMSA

binder: 21 bp MotA box DNA (dsDNA) DNA 1: GAATTATTTGCTTTAGATTAC DNA 2: GTAATCTAAAGCAAATAATTC
Kd: ~500 nM
